- System: MS2 coat protein
- assay comment: apparent Kd, MS2 coat protein; higher = weaker binding; RNA-MaP array; FMN 200 µM where present
- reported conditions: ligand present: flavin mononucleotide; designed as: ON switch for flavin mononucleotide
So I've got a bunch of sequences here, and I need their apparent Kd values.
Numeric only. Scale: µM

Q: Using the record for AAUAGACAUGAGGAUCACCCAUGUGUAUAUGGGAGAGGAUAUACGGGACACAAGGGCGGAGUAGAAGGCUCGAGAC , report its apparent Kd.
Ans: 0.146

Q: Using the record for GGGUACAUCGGAGGAUAUCAUGGAAAUACAUGAGGAUCACCCAUGUCGAUGGAGACAUCGGAGAUUGAGAAGGCCGAUGUACCG , report its apparent Kd.
Ans: 0.00638

Q: Using the record for GUAGCAAUCGGAGGAUAUUCAUACCGGAAACGGACAUGAGGAUCACCCAUGUGGCGAAAGCCUUGGGAGAAGGCCGAUUGCUAC , report its apparent Kd.
Ans: 0.0213

Q: Using the record for GUAGCUAUCGGAGGAUAUCCAUACCGGAAACGGACAUGAGGAUCACCCAUGUGGCGAAAGCCUUGGGAGAAGGCCGAUAGCUAC , report its apparent Kd.
Ans: 0.00336

Q: Using the record for GGUAUCUCCAGUGAGGAUAUGCGGCGUAGAACAUGAGGAUCACCCAUGUCCUUCGAAUGGGUUACGCAGAAGGCACUACGGUACC , report its apparent Kd.
Ans: 0.0166

Q: Using the record for UAAAUCUAGUAAGGAUAUACACGAGAUUCAAGUGUAGAAGGUACUUACAUGAGGAUCACCCAUGUAUACAUGGAUAAUAGAUAU , report its apparent Kd.
Ans: 0.109

Q: Using the record for UUCUUACAUGAGGAUCACCCAUGUGUUGUCGUGGGAGGAUAUCCUUGUUCGGUGGCGUUGGGAGAAGGCCUAUGUU , report its apparent Kd.
Ans: 0.0732
